assay: AUC (infinity) in BALB-nu/nu mouse at 20 mg/kg, po by LC-MS/MS analysis; assay type: ADME, organism-based; parameters: time infinity, dose 20 mg/kg, route oral; details: plasma
EXPERIMENTAL_ENDPOINT: AUC(0-inf)

CNS(=O)(=O)[N-]c1cccc(Cc2c(C)c3ccc(Oc4ncccn4)cc3oc2=O)c1F.[Na+] 75 µM·h

###

assay: Solubility of the compound in fasted state simulated intestinal fluid measured after overnight incubation by UV-HPLC analysis; format: ADME
EXPERIMENTAL_ENDPOINT: solubility (µg/mL)

CNS(=O)(=O)Nc1cccc(Cc2c(C)c3ccc(Oc4ncccn4)cc3oc2=O)c1F 13
CNS(=O)(=O)Nc1cccc(Cc2c(C)c3ccc(OC(=O)N(C)C)cc3oc2=O)c1F 81
CNS(=O)(=O)Nc1ccc(F)c(Cc2c(C)c3ccc(OC(=O)N(C)C)cc3oc2=O)c1 51
Cc1c(Cc2cccc(NS(N)(=O)=O)c2)c(=O)oc2cc(OC(=O)N(C)C)ccc12 32
CNS(=O)(=O)Nc1cccc(Cc2c(CF)c3ccc(OC(=O)N(C)C)cc3oc2=O)c1 72
CNS(=O)(=O)Nc1cccc(Cc2c(C)c3ccc(Oc4nccs4)cc3oc2=O)c1F 15
